Entries annotated with measured luciferase normalized to β-galactosidase, DHT
- system under test: androgen receptor (Homo sapiens, UniProt P10275)
- Sequence (P10275 whole entry, species assumed): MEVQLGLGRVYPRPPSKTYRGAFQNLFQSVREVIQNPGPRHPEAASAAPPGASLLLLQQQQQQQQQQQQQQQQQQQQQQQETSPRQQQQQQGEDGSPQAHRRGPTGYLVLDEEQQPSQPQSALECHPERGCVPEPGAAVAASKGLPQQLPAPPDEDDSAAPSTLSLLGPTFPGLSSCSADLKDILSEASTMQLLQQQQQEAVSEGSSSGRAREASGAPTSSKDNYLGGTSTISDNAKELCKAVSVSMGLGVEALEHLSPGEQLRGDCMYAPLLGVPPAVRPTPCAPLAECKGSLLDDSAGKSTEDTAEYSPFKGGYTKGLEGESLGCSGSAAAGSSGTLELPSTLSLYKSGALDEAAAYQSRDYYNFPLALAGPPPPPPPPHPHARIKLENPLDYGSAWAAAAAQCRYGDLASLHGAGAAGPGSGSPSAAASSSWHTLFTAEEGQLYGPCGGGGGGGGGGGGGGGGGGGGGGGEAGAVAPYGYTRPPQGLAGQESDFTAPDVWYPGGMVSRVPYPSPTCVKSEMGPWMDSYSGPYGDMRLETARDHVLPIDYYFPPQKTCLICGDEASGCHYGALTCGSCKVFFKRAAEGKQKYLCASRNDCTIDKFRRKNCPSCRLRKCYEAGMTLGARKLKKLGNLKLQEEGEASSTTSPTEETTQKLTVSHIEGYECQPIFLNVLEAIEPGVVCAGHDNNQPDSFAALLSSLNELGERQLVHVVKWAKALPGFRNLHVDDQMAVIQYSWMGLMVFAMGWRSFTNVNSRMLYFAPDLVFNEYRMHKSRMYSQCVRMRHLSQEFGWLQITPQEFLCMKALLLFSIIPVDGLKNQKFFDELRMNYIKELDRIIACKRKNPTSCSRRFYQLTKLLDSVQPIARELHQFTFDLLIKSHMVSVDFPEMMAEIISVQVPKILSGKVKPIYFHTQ
- Type: cell-based
- Set-up: expressed in transfected cells
- condition context: mammalian two-hybrid, Huh-7 cells, ligand DHT
- Source text: We used a mammalian two-hybrid system to determine specificities of the AR-binding peptides previously identified, through screening of the aforementioned yeast library, as ligand-dependent in their binding activity. Ligand was provided to the cells so the interaction could be observed. The human hepatoma cell line, Huh-7, was used as the recipient of two-hybrid vectors, pM and pVP16 (Clontech) (FIGS. 6A and 6B), containing fusions with peptide and AR, respectively. […]
Lab note: write the figure by itself, no unit.

EFQQCMCAEVKSWLGGSLDLQPS* [B8E9]
19.64
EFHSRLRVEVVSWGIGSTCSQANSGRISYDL* [B8H3]
11.6
EFRSSVFEQMYLCTGGSLDLQPS* [B5G11]
15.84

Query: Data request, read-out luciferase normalized to β-galactosidase, DHT, for HPTHSSRLWELLMEATPTM [D30]
Response: 12.59
